Test system: EKVX
Test: NCI tumour cell line growth inhibition, 48 h
The source made the active and inactive calls. Rule as the data show it: active = GI50 up to about 1.1 µM and inactive = higher.
In this section we review reported GI50 values for a set of compounds.

# compound, GI50
measured = [
    ("CCOc1cc(-c2nc3cc(F)ccc3s2)ccc1O", "10.8 µM (inactive)"),
    ("CC1=NN(c2ccccc2)C(=O)/C1=C1\\SC(c2ccccc2)(c2ccccc2)c2ccccc21", "> 100 µM (inactive)"),
    ("OCC1OC(n2cnc3cccnc32)CC1O (stereo not given)", "> 100 µM (inactive)"),
    ("COc1ccc(NCn2nc(CCCCCCCCc3nn(CNc4ccc(OC)cc4)c(=S)o3)oc2=S)cc1", "> 100 µM (inactive)"),
    ("CCOC(=N)/C(=C1\\OC(=N)C(c2ccc(Cl)cc2)=C1O)c1ccc(Cl)cc1", "18.1 µM (inactive)"),
    ("COC(=O)c1c2c(cc3c1CC1(C3)Cc3cc4c(c(C(=O)OC)c3C1)CCCC4)CCCC2", "> 100 µM (inactive)"),
    ("[O-][S+](Nc1ccccc1)c1ccc(Cl)c(Cl)c1 (stereo not given)", "47.3 µM (inactive)"),
    ("CC1(C)C2CCC13C(=O)C1OC3(C2)C2C(=O)N(c3ccccc3)C(=O)C12 (stereo not given)", "> 100 µM (inactive)"),
    ("COc1ccc(C(=O)/C=C/c2ccc(O)c(O)c2F)c(OC)c1", "9.08 µM (inactive)"),
    ("O=C(Nn1cc(F)c(=O)[nH]c1=O)C12CC3CC(CC(C3)C1)C2", "24 µM (inactive)"),
]

====

System: T47D
Assay: NCI tumour cell line growth inhibition, 48 h
Counter-ions that a name gives are not always drawn. The source made the active and inactive calls. Cut-off read from the data, not from the text of the source: active = GI50 up to about 1.1 µM and inactive = higher.

# compound, GI50
data = [
    ("CC(C)(Cc1ccccc1)Cc1cc(O)ccc1O", "5.9 µM (inactive)"),
    ("CN1C2=Nc3n(C)c4ccccc4[n+]3CN2c2ccccc21", "16.3 µM (inactive)"),
    ("COC(=O)c1ccccc1Nc1ccccc1C(=O)OC", "44.2 µM (inactive)"),
    ("NC1NCCC(=O)N1CCc1c[nH]c2ccccc12 (stereo not drawn)", "37.2 µM (inactive)"),
    ("CCN(CC)CCNc1ccc(CO)c2sc3ccccc3c(=O)c12 [HYCANTHONE MESYLATE]", "11.5 µM (inactive)"),
    ("CCC(CON(C)c1ccccc1)(SC)SC", "13.3 µM (inactive)"),
    ("COC1=C[C@]2(CCC(=O)O2)[C@@H]2Cc3ccccc3[C@H](O)[C@@H]2C1=O", "13.1 µM (inactive)"),
    ("ClC(Cl)(Cl)C1=N[C@H]2[C@H](Br)[C@@H]3O[C@@H](c4ccccc4)[C@H](c4ccccc4)O[C@@H]3[C@H]2O1", "30.2 µM (inactive)"),
    ("COc1ccc(N2C(=O)C(=O)C3(CCCCC3)C2=O)c(OC)c1OC", "> 100 µM (inactive)"),
    ("c1ccc(C(Oc2noc3ccccc23)c2ccccc2)cc1", "3.64 µM (inactive)"),
    ("COc1ccc(CC2c3cc(OC)c(OC)cc3CC[N+]2(C)C)cc1OC (stereo not drawn)", "> 100 µM (inactive)"),
    ("CC(C)(C)OC(=O)NC(Cc1ccc(OCc2ccccc2)cn1)C(=O)N1CCCC1 (stereo not drawn)", "27.4 µM (inactive)"),
    ("CC(Cl)(CCC(Cl)C(C)(C)Cl)C(=O)CBr (stereo not drawn)", "17.9 µM (inactive)"),
    ("O=c1[nH]c2ccc(CC(=S)N3CCN(c4ccccc4)CC3)cc2o1", "> 100 µM (inactive)"),
    ("C=C(C)C(=O)O[C@@H]1C[C@@]2(C)O[C@@H]2C[C@H](O)/C(C)=C/[C@H]2OC(=O)C(=C)[C@@H]21", "50.7 µM (inactive)"),
    ("FC(F)(F)c1n[nH]c(SCc2ccc(Cl)cc2)n1", "> 100 µM (inactive)"),
    ("CCOc1cc(-c2nc3cc(F)ccc3s2)ccc1O", "11.6 µM (inactive)"),
    ("C(/Cc1ccc2c(c1)OCO2)=N\\N=C1NCCCN1", "19.5 µM (inactive)"),
]

Numbers sourced from ChEMBL document CHEMBL1201862.
